Measured inhibition at 0.3 µM, listed per entry.
TESTED_TARGET: P2X7 receptor (Homo sapiens, UniProt Q99572)
Construct: host or cells: THP-1 cells differentiated with LPS and IFN-γ
Sequence (Q99572 whole entry): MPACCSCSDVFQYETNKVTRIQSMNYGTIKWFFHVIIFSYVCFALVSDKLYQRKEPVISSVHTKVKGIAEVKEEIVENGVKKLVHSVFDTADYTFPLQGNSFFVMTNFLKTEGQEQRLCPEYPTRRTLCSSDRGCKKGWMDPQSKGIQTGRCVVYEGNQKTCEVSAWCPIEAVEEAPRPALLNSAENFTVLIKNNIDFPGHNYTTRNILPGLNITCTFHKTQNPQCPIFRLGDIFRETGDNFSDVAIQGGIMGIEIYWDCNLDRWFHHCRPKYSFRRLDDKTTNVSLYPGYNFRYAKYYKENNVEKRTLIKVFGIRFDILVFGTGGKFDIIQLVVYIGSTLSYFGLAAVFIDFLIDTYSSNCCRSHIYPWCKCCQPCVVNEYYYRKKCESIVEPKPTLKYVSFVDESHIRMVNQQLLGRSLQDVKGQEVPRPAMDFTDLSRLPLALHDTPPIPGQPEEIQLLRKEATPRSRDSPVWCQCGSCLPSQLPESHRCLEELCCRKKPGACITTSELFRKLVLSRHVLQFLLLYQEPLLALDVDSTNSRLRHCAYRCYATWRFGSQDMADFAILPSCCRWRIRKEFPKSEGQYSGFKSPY
EXPERIMENTAL_PROTOCOL: IL-1β release assay in differentiated THP-1 cells stimulated with BzATP (Example 9)
Assay type: cell-based
CONDITION_DESCRIPTION: 0.3 μM compound; differentiated THP-1 cells, BzATP 250 uM; symbols + to ++++; read-out: IL-1β % Inhib. @ 0.3 μM
Experimental: THP-1 cells (ATCC Cat # 285-IF-100) are plated in 96 well plates at a concentration of 200,000 cells per well and allowed to differentiate in RPMI-1640 media (ATCC Cat # 30-2001) containing 10% FBS, 100 IU/mL penicillin, 100 ug/mL streptomycin, 100 ng/mL LPS and 100 ng/mL IFN-γ for 16 hours. […] 30 uL of cell supernatant is then collected and IL-1β levels determined via ELISA (R&D systems Cat. # HSLB50) according to manufacturer's recommendations using the Tecan Safire plate reader. […]

COMPOUND | ENDPOINT_LABEL | RECORDED_RESULT
COCCn1ccc2c(NC(=O)[C@@]34C[C@@H]5C[C@@H](C[C@@H]3C5)C4)cccc2c1=O [Compound 1327] | inhibition at 0.3 µM | 0 to 25%
CN(C)CCn1ccc2c(NC(=O)Cc3ccc(Cl)c(Cl)c3)cccc2c1=O [Compound 1386] | inhibition at 0.3 µM | 51 to 75%
COc1cc(CC(=O)Nc2cccc3c(=O)n(Cc4cccnc4)ccc23)cc(OC)c1 [Compound 1360] | inhibition at 0.3 µM | 26 to 50%

// query Indicate its recorded inhibition at 0.3 µM; the compound in question is COCCn1ccc2c(NC(=O)c3ccc(OC)c(C)c3)cccc2c1=O [Compound 1340]
// result 0 to 25%

// query Indicate its recorded inhibition at 0.3 µM; the compound in question is CC(C)(C)Cn1ccc2c(NC(=O)c3cccc4c3OCCO4)cccc2c1=O [Compound 1272]
// result 0 to 25%

// query Indicate its recorded inhibition at 0.3 µM; the compound in question is CN(C)CCn1ccc2c(NC(=O)CC3(O)CC(C)(C)CC(C)(C)C3)cccc2c1=O [Compound 1390]
// result ≥ 76%

// query Indicate its recorded inhibition at 0.3 µM; the compound in question is COCCn1ccc2c(NC(=O)Cc3ccc(OC)cc3)cccc2c1=O [Compound 1316]
// result 0 to 25%

// query Indicate its recorded inhibition at 0.3 µM; the compound in question is O=C(Nc1cccc2c(=O)n(CCN3CCOCC3)ccc12)[C@@]12C[C@@H]3C[C@@H](C[C@@H]1C3)C2 [Compound 1223]
// result 0 to 25%

// query Indicate its recorded inhibition at 0.3 µM; the compound in question is COc1c(C)cc(C(=O)Nc2cccc3c(=O)n(Cc4cccnc4)ccc23)cc1C [Compound 1361]
// result 0 to 25%

// query Indicate its recorded inhibition at 0.3 µM; the compound in question is CC(C)Cc1ccc(C(=O)Nc2cccc3c(=O)n(CC(C)(C)C)ccc23)cc1 [Compound 1288]
// result 0 to 25%

// query Indicate its recorded inhibition at 0.3 µM; the compound in question is CC(=O)OCCn1ccc2c(NC(=O)Cc3ccc(Cl)c(C(F)(F)F)c3)cccc2c1=O [Compound 1380]
// result ≥ 76%

// query Indicate its recorded inhibition at 0.3 µM; the compound in question is COc1ccccc1CC(=O)Nc1cccc2c(=O)n(C)ccc12 [Compound 1295]
// result 0 to 25%

// query Indicate its recorded inhibition at 0.3 µM; the compound in question is CN(C)CCn1ccc2c(NC(=O)Cc3ccc(Cl)cc3Cl)cccc2c1=O [Compound 1387]
// result 51 to 75%

// query Indicate its recorded inhibition at 0.3 µM; the compound in question is CCOc1ccc(CC(=O)Nc2cccc3c(=O)n(CC(C)(C)C)ccc23)cc1 [Compound 1261]
// result 0 to 25%

// query Indicate its recorded inhibition at 0.3 µM; the compound in question is CC(C(=O)Nc1cccc2c(=O)n(CCN3CCOCC3)ccc12)c1ccccc1 (centres unmarked) [Compound 1200]
// result 0 to 25%

// query Indicate its recorded inhibition at 0.3 µM; the compound in question is Cn1ccc2c(NC(=O)Cc3ccccc3F)cccc2c1=O [Compound 1294]
// result 0 to 25%

// query Indicate its recorded inhibition at 0.3 µM; the compound in question is COCCn1ccc2c(NC(=O)c3ccc(Cl)cc3C)cccc2c1=O [Compound 1325]
// result 26 to 50%
